Record form. Attribute: IC50. Fill in for each entry.
Target: LRRK2-2019S (Homo sapiens (Human), UniProt Q5S007, G2019S)
Sequence (Q5S007 whole entry G2019S): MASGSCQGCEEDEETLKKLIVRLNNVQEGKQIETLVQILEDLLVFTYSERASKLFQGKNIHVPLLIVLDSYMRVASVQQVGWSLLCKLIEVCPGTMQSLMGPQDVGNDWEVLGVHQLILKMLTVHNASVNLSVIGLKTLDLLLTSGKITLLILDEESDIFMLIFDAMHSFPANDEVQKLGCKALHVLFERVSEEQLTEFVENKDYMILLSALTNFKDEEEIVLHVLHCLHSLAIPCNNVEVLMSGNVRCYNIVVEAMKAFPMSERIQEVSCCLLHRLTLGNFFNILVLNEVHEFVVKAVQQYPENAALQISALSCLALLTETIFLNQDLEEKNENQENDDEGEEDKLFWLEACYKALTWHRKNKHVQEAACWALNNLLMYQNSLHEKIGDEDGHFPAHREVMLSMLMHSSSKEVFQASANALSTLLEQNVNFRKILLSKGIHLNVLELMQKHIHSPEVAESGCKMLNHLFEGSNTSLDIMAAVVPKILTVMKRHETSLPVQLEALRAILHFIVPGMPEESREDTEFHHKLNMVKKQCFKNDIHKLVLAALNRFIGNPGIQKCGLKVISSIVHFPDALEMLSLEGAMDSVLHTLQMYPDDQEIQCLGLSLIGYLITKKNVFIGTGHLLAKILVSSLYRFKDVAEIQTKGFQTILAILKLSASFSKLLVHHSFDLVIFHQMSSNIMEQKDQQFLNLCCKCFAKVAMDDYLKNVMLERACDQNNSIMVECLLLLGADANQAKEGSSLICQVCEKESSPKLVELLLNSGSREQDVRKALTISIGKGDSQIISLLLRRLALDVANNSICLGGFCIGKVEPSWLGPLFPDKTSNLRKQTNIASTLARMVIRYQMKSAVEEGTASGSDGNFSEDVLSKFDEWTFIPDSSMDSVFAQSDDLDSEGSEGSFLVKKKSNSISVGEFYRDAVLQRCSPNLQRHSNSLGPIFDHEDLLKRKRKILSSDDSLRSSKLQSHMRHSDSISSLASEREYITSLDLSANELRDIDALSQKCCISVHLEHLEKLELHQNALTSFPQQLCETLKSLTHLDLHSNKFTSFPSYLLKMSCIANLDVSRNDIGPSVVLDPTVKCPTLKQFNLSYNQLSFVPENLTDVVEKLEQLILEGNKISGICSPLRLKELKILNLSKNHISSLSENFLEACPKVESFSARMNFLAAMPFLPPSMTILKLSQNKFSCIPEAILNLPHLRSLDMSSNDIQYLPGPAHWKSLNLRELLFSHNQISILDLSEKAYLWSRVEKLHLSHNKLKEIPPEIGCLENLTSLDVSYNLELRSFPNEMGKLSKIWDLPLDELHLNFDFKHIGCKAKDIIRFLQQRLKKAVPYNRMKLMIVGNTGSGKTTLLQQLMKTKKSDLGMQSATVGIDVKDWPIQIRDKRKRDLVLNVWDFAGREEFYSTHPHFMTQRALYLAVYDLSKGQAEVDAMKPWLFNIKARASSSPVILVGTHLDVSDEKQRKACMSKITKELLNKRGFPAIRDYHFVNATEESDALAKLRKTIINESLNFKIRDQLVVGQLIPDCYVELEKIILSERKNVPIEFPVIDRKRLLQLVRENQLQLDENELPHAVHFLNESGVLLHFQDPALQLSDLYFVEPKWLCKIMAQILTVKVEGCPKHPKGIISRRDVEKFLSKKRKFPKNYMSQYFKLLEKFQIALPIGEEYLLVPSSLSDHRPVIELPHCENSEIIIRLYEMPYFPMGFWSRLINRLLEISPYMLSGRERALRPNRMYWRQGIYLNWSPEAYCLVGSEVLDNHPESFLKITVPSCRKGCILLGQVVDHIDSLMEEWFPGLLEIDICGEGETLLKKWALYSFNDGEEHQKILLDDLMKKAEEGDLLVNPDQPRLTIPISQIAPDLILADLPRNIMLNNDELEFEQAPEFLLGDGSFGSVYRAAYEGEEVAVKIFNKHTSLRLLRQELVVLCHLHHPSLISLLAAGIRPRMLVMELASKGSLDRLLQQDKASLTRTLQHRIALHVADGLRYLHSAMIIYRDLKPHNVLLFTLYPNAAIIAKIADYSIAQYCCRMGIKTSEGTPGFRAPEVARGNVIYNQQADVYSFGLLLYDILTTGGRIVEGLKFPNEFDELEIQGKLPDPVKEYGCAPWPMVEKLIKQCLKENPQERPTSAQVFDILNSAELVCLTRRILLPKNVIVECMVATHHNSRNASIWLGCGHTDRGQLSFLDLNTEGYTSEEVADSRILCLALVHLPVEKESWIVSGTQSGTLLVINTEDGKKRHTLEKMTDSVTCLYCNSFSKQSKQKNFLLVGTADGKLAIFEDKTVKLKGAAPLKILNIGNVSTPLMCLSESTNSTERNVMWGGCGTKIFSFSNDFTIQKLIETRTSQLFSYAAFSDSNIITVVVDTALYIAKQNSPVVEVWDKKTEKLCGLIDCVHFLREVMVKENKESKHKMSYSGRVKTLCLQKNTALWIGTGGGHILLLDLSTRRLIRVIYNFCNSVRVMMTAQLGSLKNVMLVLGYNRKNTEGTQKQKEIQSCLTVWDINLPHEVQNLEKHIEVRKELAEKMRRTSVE
Experiment: HEK293 cell kinase inhibition assay (NanoBRET)
Details: HEK293 cells
Method: HEK293 cells were cultured, and collected by adding trypsin. Culture medium was added, and the cell density was adjusted to 2×10^5/mL. Liposome-DNA complexes were constructed and mixed with HEK293 cells at a ratio of 1:20. […] NanoBRET reagent (Promega) was added, and bioluminescence was measured within 10 min using the microplate reader (Envision 2104) at 450 nm for the donor luciferase protein (donor) and 610 nm for the acceptor fluorescent group (acceptor). […]
Give bare numbers, in nM.

INSERT INTO measurements (structure_smiles, test_result) VALUES
  ('C[C@@H]1CN(c2cc(-c3n[nH]c4ccnc(N[C@H](C)C(F)(F)F)c34)ncn2)C[C@H](C)O1', 16.3);

Lab note: next molecule to report on.
Req: // lookup IC50 | system=LRRK2-2019S (Homo sapiens (Human), UniProt Q5S007, G2019S) | key= C[C@@H]1CN(c2cc(-c3n[nH]c4ccnc(NCC(F)(F)F)c34)ncn2)C[C@H](C)O1
Resp: 97.5

* * *

Molecular target: LRRK2-R1441C (Homo sapiens (Human), UniProt Q5S007, R1441C)
Test: HEK293 cell kinase inhibition assay (NanoBRET)
Conditions: HEK293 cells
Record form. Attribute: pIC50. Fill in for each entry.
Numbers only, as −log10 of the molar value.

INSERT INTO measurements (structure_smiles, test_result) VALUES
  ('C[C@@H]1CN(c2cc(-c3n[nH]c4ccnc(NCC(F)(F)F)c34)ncn2)C[C@H](C)O1', 6.53);

Req: Which pIC50 reading was recorded for the compound C[C@@H]1CN(c2cc(-c3n[nH]c4ccnc(N[C@H](C)C(F)(F)F)c34)ncn2)C[C@H](C)O1 ?
Resp: 7.34

* * *

Target: LRRK2 (Homo sapiens (Human), UniProt Q5S007)
Experiment: HEK293 cell kinase inhibition assay (NanoBRET)
Assay type: cell-based
Conditions: HEK293 cells
Measurement label: pIC50
One number for each entry, as −log10 of the molar value.

INSERT INTO results (structure_smiles, test_result) VALUES
  ('C[C@@H]1CN(c2cc(-c3n[nH]c4ccnc(N[C@H](C)C(F)(F)F)c34)ncn2)C[C@H](C)O1', 7.61);

Lab note: next molecule to report on.
Req: Which pIC50 reading was recorded for the molecule C[C@@H]1CN(c2cc(-c3n[nH]c4ccnc(NCC(F)(F)F)c34)ncn2)C[C@H](C)O1 ?
Resp: 6.61

* * *

Target: LRRK2 G2019S (Homo sapiens (Human), UniProt Q5S007, G2019S)
Sequence (Q5S007 whole entry G2019S): as above
Assay: Kinase inhibition assay (ADP-Glo, LRRKtide substrate)
Settings: LRRK2 G2019S protein, room temperature
Experimental: Kinase LRRK2 G2019S protein was derived from Carna, LRRKtide was derived from Signalchem, ATP was derived from Promega, and DMSO was derived from Sigma. All assays were performed at room temperature. The test compounds were dissolved and diluted, and then added to a 384-well plate. 2.5 μL of 2× kinase reaction buffer was added, and the mixture was centrifuged. […] Then, the data were read using the Envision 2104 multi-label Reader.
Measurement label: pIC50
Answers are plain numbers, as −log10 of the molar value.

Record pIC50 for all entries; do not skip any.
1. C[C@@H]1C[C@H](Nc2nccc3[nH]nc(-c4cc(N5C[C@H]6C[C@@H]5CO6)ncn4)c23)C[C@H](C)O1
2. C[C@@H]1C[C@H](Nc2nccc3[nH]nc(-c4cc(N5C[C@@H]6C[C@H]5CO6)ncn4)c23)C[C@H](C)O1
3. C[C@@H]1C[C@H](Nc2nccc3[nH]nc(-c4cc(N5C[C@@H](C)O[C@@H](C)C5)ncn4)c23)C[C@H](C)O1
4. C[C@@H]1CN(c2cc(-c3n[nH]c4ccnc(N[C@@H](C)C(F)(F)F)c34)ncn2)C[C@H](C)O1
5. C[C@@H]1CN(c2cc(-c3n[nH]c4ccnc(N[C@H](C)C(F)(F)F)c34)ncn2)C[C@H](C)O1
6. C[C@@H]1C[C@@H](Nc2nccc3[nH]nc(-c4cc(N5C[C@H]6C[C@@H]5CO6)ncn4)c23)C[C@H](C)O1
7. N#CC1(c2cc(-c3n[nH]c4ccnc(NCC(F)(F)F)c34)ncn2)CCC1

Resp:
1. 8.72
2. 8.43
3. 8.66
4. 8.80
5. 8.92
6. 7.44
7. 8.62

* * *

Biological target: LRRK2 G2019S (Homo sapiens (Human), UniProt Q5S007, G2019S)
Experiment: Kinase inhibition assay (ADP-Glo, LRRKtide substrate)
Settings: LRRK2 G2019S protein, room temperature
Record form. Attribute: pIC50. Fill in for each entry.
Numbers only, as −log10 of the molar value.

Example results:
INSERT INTO measurements (compound, system, measurement_label, test_result) VALUES
  ('C[C@@H]1CN(c2cc(-c3n[nH]c4ccnc(NCC(F)(F)F)c34)ncn2)C[C@H](C)O1 [Compound 447]', 'LRRK2 G2019S (Homo sapiens (Human), UniProt Q5S007, G2019S)', 'pIC50', 8.55),
  ('C[C@H]1CN(c2cc(-c3n[nH]c4ccnc(N[C@H](C)C(F)(F)F)c34)ncn2)C[C@H](C)O1 [Compound 561]', 'LRRK2 G2019S (Homo sapiens (Human), UniProt Q5S007, G2019S)', 'pIC50', 8.89),
  ('O[C@@H]1C[C@H](O)CN(c2cc(-c3n[nH]c4ccnc(NCC(F)(F)F)c34)ncn2)C1 [Compound 526]', 'LRRK2 G2019S (Homo sapiens (Human), UniProt Q5S007, G2019S)', 'pIC50', 8.29),
  ('FC(F)(F)CNc1nccc2[nH]nc(-c3cc(N4C[C@H]5C[C@@H]4CO5)ncn3)c12 [Compound 487]', 'LRRK2 G2019S (Homo sapiens (Human), UniProt Q5S007, G2019S)', 'pIC50', 8.62),
  ('CC(C)n1cc(-c2n[nH]c3ccnc(NCC(F)(F)F)c23)cn1 [Compound 515]', 'LRRK2 G2019S (Homo sapiens (Human), UniProt Q5S007, G2019S)', 'pIC50', 7.56),
  ('FC(F)(F)CNc1nccc2[nH]nc(-c3cc(N4C5CCC4COC5)ncn3)c12 [Compound 520]', 'LRRK2 G2019S (Homo sapiens (Human), UniProt Q5S007, G2019S)', 'pIC50', 8.32);

Record pIC50 for all entries; do not skip any.
1. FC(F)(F)CNc1nccc2[nH]nc(-c3cc(N4C[C@@H]5C[C@H]4CO5)ncn3)c12 [Compound 486]
2. FC(F)(F)CNc1nccc2[nH]nc(-c3ccccn3)c12 [Control compound, reference compound]
3. C[C@@H]1CN(c2cc(-c3n[nH]c4ccnc(NC5(C)CC5)c34)ncn2)C[C@H](C)O1 [Compound 391]

Resp:
1: 8.51; 2: 7.92; 3: 8.02
